system_tested: RPS6KA1 KD1 KD2 (human) (UniProt Q15418)
Sequence (Q15418 whole entry, looked up): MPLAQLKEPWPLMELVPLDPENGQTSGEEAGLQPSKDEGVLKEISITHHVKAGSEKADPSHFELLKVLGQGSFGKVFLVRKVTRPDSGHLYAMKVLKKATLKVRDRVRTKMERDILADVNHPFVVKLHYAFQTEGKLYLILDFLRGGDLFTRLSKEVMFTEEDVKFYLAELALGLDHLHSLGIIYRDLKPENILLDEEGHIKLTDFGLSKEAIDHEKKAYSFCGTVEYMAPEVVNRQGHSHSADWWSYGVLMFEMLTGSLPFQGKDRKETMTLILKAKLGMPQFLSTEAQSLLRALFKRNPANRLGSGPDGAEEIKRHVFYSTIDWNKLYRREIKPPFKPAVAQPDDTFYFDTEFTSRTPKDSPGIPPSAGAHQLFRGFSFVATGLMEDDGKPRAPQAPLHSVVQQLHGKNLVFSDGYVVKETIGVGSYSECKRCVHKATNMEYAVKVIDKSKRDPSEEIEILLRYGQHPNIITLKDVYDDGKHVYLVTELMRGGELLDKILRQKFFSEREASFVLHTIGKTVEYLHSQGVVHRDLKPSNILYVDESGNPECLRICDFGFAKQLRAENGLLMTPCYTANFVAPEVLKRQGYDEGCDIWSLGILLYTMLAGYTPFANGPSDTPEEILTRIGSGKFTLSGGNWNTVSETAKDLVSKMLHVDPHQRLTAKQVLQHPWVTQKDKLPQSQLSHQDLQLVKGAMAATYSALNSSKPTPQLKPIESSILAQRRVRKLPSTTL
assay_procedure: radiometric filter-binding kinase assay
cond: compound 10.0 µM
readout_kind: residual activity (%)

The examples below pair each entry with its known result.
molecule: CCCC(CCC)C(=O)O
residual activity / %: 100
--
molecule: NCC(=O)Nc1ccc(-n2nc(C(F)(F)F)cc2-c2ccc3c(ccc4ccccc43)c2)cc1
residual activity / %: 63
--
molecule: O=C(N[C@@H](COc1ccc2[nH]c(=O)[nH]c2c1)c1ccccc1)c1cccn(Cc2ccc(F)c(F)c2)c1=O
residual activity / %: 114

P: COc1cc(C(=O)N2CCOCC2)c(F)cc1Nc1ncc(C(F)(F)F)c(NC2CC2)n1
Q: Oc1ccc(/C=C/c2cc(O)cc(O)c2)cc1
R: Cc1ccc(Sc2cnc(Nc3cccc(Br)n3)s2)cc1C(=O)N1CCN(C(=O)CN)CC1
S: CCOC(=O)c1ccc(N2NC(=O)/C(=C/c3ccc([N+](=O)[O-])o3)C2=O)cc1
Input: Order the items by recorded residual activity; the first position goes to the largest value. State the ranking by listing the labels in the requested order.
Output: S, Q, P, R
(S: 92%, Q: 63%, P: 14%, R: 6%)

I: O=C1Nc2nc(-c3c(O)cccc3OCC3CC3)cc(C3CCCNC3)c2CO1 (stereo not given)
II: Cc1nc(-c2ccc(OCC(C)C)c(C#N)c2)sc1C(=O)O
Input: Higher residual activity between I and II ? // caller expects the label of the chosen entry
Output: II

====

Tested on: TGFBR1 (human), P36897 [T204D]
Sequence (P36897 whole entry T204D, looked up): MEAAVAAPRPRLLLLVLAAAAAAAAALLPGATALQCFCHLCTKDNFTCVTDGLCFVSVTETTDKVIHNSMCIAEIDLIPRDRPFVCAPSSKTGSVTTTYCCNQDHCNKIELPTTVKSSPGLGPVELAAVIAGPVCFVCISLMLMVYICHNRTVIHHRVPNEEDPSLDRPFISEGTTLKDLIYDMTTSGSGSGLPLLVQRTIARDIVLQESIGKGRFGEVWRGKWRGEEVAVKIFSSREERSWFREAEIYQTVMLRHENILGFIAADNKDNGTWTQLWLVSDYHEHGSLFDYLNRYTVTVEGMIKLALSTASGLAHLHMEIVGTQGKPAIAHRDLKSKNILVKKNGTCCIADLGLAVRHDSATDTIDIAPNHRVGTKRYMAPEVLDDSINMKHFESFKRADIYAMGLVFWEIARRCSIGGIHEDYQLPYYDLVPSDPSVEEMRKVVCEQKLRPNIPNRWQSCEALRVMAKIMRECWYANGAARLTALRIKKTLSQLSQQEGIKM
assay_procedure: radiometric filter-binding kinase assay
cond: compound 10.0 µM
readout_kind: residual activity (%)

molecule: CCn1c(-c2nonc2N)nc2cncc(CNC3CCNCC3)c21
system_tested: TGFBR1 (human), P36897 [T204D]
residual activity / %: 92
--
molecule: COc1cc(C(=O)N2CCOCC2)c(F)cc1Nc1ncc(C(F)(F)F)c(NC2CC2)n1
system_tested: TGFBR1 (human), P36897 [T204D]
residual activity / %: 103
--
molecule: CCNc1nc(Nc2cc(F)c(C(=O)N3CCOCC3)cc2OC)ncc1C(F)(F)F
system_tested: TGFBR1 (human), P36897 [T204D]
residual activity / %: 102
--
molecule: COC(=O)/C=C/C(=O)OC
system_tested: TGFBR1 (human), P36897 [T204D]
residual activity / %: 93
--
molecule: NCC(=O)Nc1ccc(-n2nc(C(F)(F)F)cc2-c2ccc3c(ccc4ccccc43)c2)cc1
system_tested: TGFBR1 (human), P36897 [T204D]
residual activity / %: 98
--
molecule: Nc1cccc2c1CN(C1CCC(=O)NC1=O)C2=O (stereo unspecified)
system_tested: TGFBR1 (human), P36897 [T204D]
residual activity / %: 115

====

system_tested: TTK (human)
assay_procedure: radiometric filter-binding kinase assay
cond: compound 0.1 µM
readout_kind: residual activity (%)

compound: NC(=O)c1cc2c(-c3cccc(-c4ccccc4)c3)cnc(N)c2s1
residual activity (%): 87
//
compound: Cc1ccc(Sc2cnc(Nc3cccc(Br)n3)s2)cc1C(=O)N1CCN(C(=O)CN)CC1
residual activity (%): 75
//
compound: CCn1c(-c2nonc2N)nc2cncc(CNC3CCNCC3)c21
residual activity (%): 83
//
compound: CC1=C(CO)C(=O)O[C@@H]([C@@H](C)[C@H]2CC[C@H]3[C@@H]4C[C@H]5O[C@]56[C@@H](O)C=CC(=O)[C@]6(C)C4CC[C@]23C)C1 (stereo not given in full)
residual activity (%): 111
//
compound: O=C(N[C@@H](COc1ccc2[nH]c(=O)[nH]c2c1)c1ccccc1)c1cccn(Cc2ccc(F)c(F)c2)c1=O
residual activity (%): 99
//
compound: Cc1ccc(-c2ccc3c(ccc4sc5c(c43)NC[C@@H](C)NC5=O)n2)cn1
residual activity (%): 117
//
compound: c1ccc2c(-c3cnn4cc(-c5ccc(N6CCNCC6)cc5)cnc34)ccnc2c1
residual activity (%): 89
//
compound: O=C(NCCCNc1nc(Nc2cccc(CN3CCOCC3)c2)ncc1C1CC1)C1CCC1
residual activity (%): 94
//
compound: NC1(c2ccc(-c3nc4ccn5c(=O)[nH]nc5c4cc3-c3ccccc3)cc2)CCC1
residual activity (%): 106
//
compound: NC(=O)c1cc(-c2ccnc(NC3CCCCC3)c2)nc(N2CCNCC2)c1
residual activity (%): 111
//
compound: COc1cc(O)c2c(c1)[C@H]1OC1C[C@H](O)[C@H](O)C(=O)/C=C\C[C@H](C)OC2=O (stereo not given in full)
residual activity (%): 95
//
compound: CNc1nc(-c2ccc3c(N)n[nH]c3c2)cc(N2C[C@@H](C(=O)NC3CCCCC3)CC[C@H]2C)n1
residual activity (%): 98
//
compound: C=CC(=O)N1CCC[C@@H](n2nc(-c3ccc(Oc4ccccc4)cc3)c3c(N)ncnc32)C1
residual activity (%): 95
//
compound: CN(C)C/C=C/C(=O)Nc1cccc(C(=O)Nc2ccc(Nc3nccc(-c4cccnc4)n3)cc2)c1
residual activity (%): 83
//
compound: O=C(Nc1nc2cc(C(F)(F)F)cc(NC3CC3)n2n1)c1cccnc1
residual activity (%): 99

====

system_tested: MAPK14 (human) (UniProt Q16539)
Sequence (Q16539 whole entry, looked up): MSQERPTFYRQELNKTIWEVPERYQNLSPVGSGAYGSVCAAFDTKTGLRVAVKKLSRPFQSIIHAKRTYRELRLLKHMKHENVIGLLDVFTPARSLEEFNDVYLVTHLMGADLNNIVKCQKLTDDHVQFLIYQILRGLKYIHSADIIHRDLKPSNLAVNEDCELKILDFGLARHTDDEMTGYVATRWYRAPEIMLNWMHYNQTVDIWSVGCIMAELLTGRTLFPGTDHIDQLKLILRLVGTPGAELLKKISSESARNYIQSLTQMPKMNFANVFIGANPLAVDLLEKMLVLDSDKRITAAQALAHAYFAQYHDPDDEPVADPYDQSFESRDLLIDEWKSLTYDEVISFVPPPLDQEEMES
assay_procedure: radiometric filter-binding kinase assay
cond: compound 1.0 µM
readout_kind: residual activity (%)

molecule: CN1C(=O)[C@@H](Cc2c[nH]c3ccccc23)NC1=S
unit_abbrev: %
value: 97
--
molecule: c1ccc2c(-c3cnn4cc(-c5ccc(N6CCNCC6)cc5)cnc34)ccnc2c1
unit_abbrev: %
value: 84
--
molecule: CCn1c(-c2nonc2N)nc2cncc(CNC3CCNCC3)c21
unit_abbrev: %
value: 95
--
molecule: NC1(c2ccc(-c3nc4ccn5c(=O)[nH]nc5c4cc3-c3ccccc3)cc2)CCC1
unit_abbrev: %
value: 97
--
molecule: O=C(Nc1cccnc1)c1cc(-c2ccnc(F)c2)ccc1OCc1ccccc1
unit_abbrev: %
value: 101
--
molecule: O=C(NCCCNc1nc(Nc2cccc(CN3CCOCC3)c2)ncc1C1CC1)C1CCC1
unit_abbrev: %
value: 107
--
molecule: Cc1cc(NC(=O)c2cccc(NC(=O)/C=C/CN(C)C)c2)ccc1Nc1nccc(-c2cccnc2)n1
unit_abbrev: %
value: 110
--
molecule: Nc1cccc2c1CN(C1CCC(=O)NC1=O)C2=O (stereo unspecified)
unit_abbrev: %
value: 105
--
molecule: N#Cc1c(C2CCNCC2)cc(-c2c(O)cccc2OCC2CC2)nc1N
unit_abbrev: %
value: 102
--
molecule: Cc1ccc(=O)n(-c2ccccc2)c1
unit_abbrev: %
value: 102
--
molecule: O=c1c(O)c(-c2ccc(O)c(O)c2)oc2cc(O)c(O)c(O)c12
unit_abbrev: %
value: 100

====

system_tested: MAP3K7 TAB1 (human) (UniProt Q15750+O43318)
Sequence (O43318 whole entry, looked up): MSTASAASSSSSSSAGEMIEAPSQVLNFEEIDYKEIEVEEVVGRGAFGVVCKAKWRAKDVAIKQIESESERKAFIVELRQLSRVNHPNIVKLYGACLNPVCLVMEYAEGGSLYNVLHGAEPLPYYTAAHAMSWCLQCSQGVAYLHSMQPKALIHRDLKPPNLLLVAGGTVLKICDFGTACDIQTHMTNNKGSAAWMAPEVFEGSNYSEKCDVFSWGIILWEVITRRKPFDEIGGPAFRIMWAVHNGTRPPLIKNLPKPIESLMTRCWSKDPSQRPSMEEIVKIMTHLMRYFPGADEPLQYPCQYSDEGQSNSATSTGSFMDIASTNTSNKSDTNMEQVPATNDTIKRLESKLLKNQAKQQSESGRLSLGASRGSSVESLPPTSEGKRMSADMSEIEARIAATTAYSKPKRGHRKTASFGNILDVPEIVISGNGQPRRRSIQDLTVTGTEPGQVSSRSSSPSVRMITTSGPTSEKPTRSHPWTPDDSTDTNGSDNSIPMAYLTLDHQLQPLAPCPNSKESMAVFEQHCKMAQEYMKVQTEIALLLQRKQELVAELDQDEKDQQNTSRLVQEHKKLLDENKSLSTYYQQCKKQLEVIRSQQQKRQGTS
Sequence (Q15750 whole entry, looked up): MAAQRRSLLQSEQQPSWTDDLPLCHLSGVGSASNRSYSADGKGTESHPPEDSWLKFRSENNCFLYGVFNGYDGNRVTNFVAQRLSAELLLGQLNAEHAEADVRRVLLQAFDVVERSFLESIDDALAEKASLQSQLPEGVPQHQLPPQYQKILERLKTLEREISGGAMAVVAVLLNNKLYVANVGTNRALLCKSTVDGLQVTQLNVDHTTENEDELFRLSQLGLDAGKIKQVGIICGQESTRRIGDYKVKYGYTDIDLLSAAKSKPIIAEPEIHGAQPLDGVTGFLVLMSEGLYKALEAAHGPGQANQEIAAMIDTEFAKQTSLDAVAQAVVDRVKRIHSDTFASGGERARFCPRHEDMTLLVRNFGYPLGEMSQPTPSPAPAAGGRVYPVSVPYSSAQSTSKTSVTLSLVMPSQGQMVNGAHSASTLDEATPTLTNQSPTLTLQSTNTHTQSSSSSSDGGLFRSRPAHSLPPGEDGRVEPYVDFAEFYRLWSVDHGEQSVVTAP
assay_procedure: radiometric filter-binding kinase assay
cond: compound 10.0 µM
readout_kind: residual activity (%)

The examples below pair each entry with its known result.
compound: FC(F)(F)c1ccc(-c2ccc(Oc3cncc4sc(-c5nn[nH]n5)cc34)cc2)cc1
unit_abbrev: %
residual activity: 67
//
compound: CCn1c(-c2nonc2N)nc2cncc(CNC3CCNCC3)c21
unit_abbrev: %
residual activity: 82
//
compound: Nc1cccc2c1CN(C1CCC(=O)NC1=O)C2=O (stereo not given)
unit_abbrev: %
residual activity: 104
//
compound: O=C(NOCC(O)CO)c1ccc(F)c(F)c1Nc1ccc(I)cc1Cl (stereo not given)
unit_abbrev: %
residual activity: 92
//
compound: N#Cc1c(O)c2c(-c3ccc(-c4ccccc4O)cc3)csc2[nH]c1=O
unit_abbrev: %
residual activity: 83
//
compound: CC(C)(C#N)c1ccc(N2C(=O)OCc3cnc4ccc(-c5cnc6ccccc6c5)cc4c32)cc1
unit_abbrev: %
residual activity: 78

A: NC(=O)c1ccc(-c2ccc(Oc3cncc4sc(-c5nn[nH]n5)cc34)cc2)cc1
B: NC(=O)c1cc2c(-c3cccc(-c4ccccc4)c3)cnc(N)c2s1
C: CCCCCc1ccc(/C=C/[C@H](O)[C@@H](CO)NC)cc1
D: c1ccc2c(-c3cnn4cc(-c5ccc(N6CCNCC6)cc5)cnc34)ccnc2c1
Input: Order the items by recorded residual activity; the first position goes to the largest value. State the ranking by listing the labels in the requested order.
Output: C, A, D, B
(C: 111%, A: 75%, D: 13%, B: 2%)

====

system_tested: MAPK3 (human) (UniProt P27361)
Sequence (P27361 whole entry, looked up): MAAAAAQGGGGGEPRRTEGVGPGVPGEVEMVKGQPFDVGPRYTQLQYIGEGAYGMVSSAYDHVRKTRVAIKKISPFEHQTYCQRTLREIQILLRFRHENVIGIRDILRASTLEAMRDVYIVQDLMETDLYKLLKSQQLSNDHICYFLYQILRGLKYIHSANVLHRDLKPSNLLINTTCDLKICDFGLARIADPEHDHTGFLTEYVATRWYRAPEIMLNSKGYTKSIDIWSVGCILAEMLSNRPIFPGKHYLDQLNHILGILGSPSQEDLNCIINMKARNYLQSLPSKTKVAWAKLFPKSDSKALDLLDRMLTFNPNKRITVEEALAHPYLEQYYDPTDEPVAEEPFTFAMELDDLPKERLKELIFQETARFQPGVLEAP
assay_procedure: radiometric filter-binding kinase assay
cond: compound 0.1 µM
readout_kind: residual activity (%)

molecule: Cc1ccc(Sc2cnc(Nc3cccc(Br)n3)s2)cc1C(=O)N1CCN(C(=O)CN)CC1
readout_kind: residual activity
unit_abbrev: %
value: 103

molecule: C/C(=C1/C(=O)Nc2ccc(NC(N)=O)cc21)c1ccc[nH]1
readout_kind: residual activity
unit_abbrev: %
value: 82

molecule: COc1ccc(N(C(=O)Nc2c(C)cccc2C)c2cc(Nc3ccc(N4CCN(C)CC4)cc3)ncn2)c(OC)c1
readout_kind: residual activity
unit_abbrev: %
value: 101

molecule: O=C(NCCCNc1nc(Nc2cccc(CN3CCOCC3)c2)ncc1C1CC1)C1CCC1
readout_kind: residual activity
unit_abbrev: %
value: 105

molecule: COc1cc(O)c2c(c1)/C=C/C[C@H](O)[C@H](O)C(=O)/C=C\C[C@H](C)OC2=O
readout_kind: residual activity
unit_abbrev: %
value: 106

molecule: COc1cc(O)c2c(c1)[C@H]1OC1C[C@H](O)[C@H](O)C(=O)/C=C\C[C@H](C)OC2=O (some centres undefined)
readout_kind: residual activity
unit_abbrev: %
value: 102

molecule: CCn1c(-c2nonc2N)nc2cncc(CNC3CCNCC3)c21
readout_kind: residual activity
unit_abbrev: %
value: 95

molecule: Cn1c(=O)c2c(ncn2C)n(C)c1=O
readout_kind: residual activity
unit_abbrev: %
value: 99

molecule: C=CC(=O)N1CCC[C@@H](n2nc(-c3ccc(Oc4ccccc4)cc3)c3c(N)ncnc32)C1
readout_kind: residual activity
unit_abbrev: %
value: 83

molecule: Cc1cc(NC(=O)c2cccc(NC(=O)/C=C/CN(C)C)c2)ccc1Nc1nccc(-c2cccnc2)n1
readout_kind: residual activity
unit_abbrev: %
value: 103

molecule: c1ccc2c(-c3cnn4cc(-c5ccc(N6CCNCC6)cc5)cnc34)ccnc2c1
readout_kind: residual activity
unit_abbrev: %
value: 89

molecule: Cc1ccc(-c2ccc3c(ccc4sc5c(c43)NC[C@@H](C)NC5=O)n2)cn1
readout_kind: residual activity
unit_abbrev: %
value: 111

molecule: COc1ccc2c(c1)c1c3c(c4c5ccccc5n(C)c4c1n2CC(O)CN(C)C)C(=O)NC3=O (centres undefined)
readout_kind: residual activity
unit_abbrev: %
value: 94

molecule: NC1(c2ccc(-c3nc4ccn5c(=O)[nH]nc5c4cc3-c3ccccc3)cc2)CCC1
readout_kind: residual activity
unit_abbrev: %
value: 108

molecule: CN1CCN(CCOc2cc(OC3CCOCC3)c3c(Nc4c(Cl)ccc5c4OCO5)ncnc3c2)CC1
readout_kind: residual activity
unit_abbrev: %
value: 93

molecule: CCc1cncnc1N1CCN(Cc2nc3cc(C(F)(F)F)ccc3[nH]2)CC1
readout_kind: residual activity
unit_abbrev: %
value: 93

molecule: O=C(N[C@@H](COc1ccc2[nH]c(=O)[nH]c2c1)c1ccccc1)c1cccn(Cc2ccc(F)c(F)c2)c1=O
readout_kind: residual activity
unit_abbrev: %
value: 93

molecule: O=C(Nc1ccccc1-c1cn2c(CN3CCNCC3)csc2n1)c1cnc2ccccc2n1
readout_kind: residual activity
unit_abbrev: %
value: 88

molecule: O=C(O)c1ccc(-c2c[nH]c3ncc(-c4ccccc4)cc23)cc1C1CCCC1
readout_kind: residual activity
unit_abbrev: %
value: 105
